// data source = patent US20250326771A1

Biological target: XIAP-BIR3 (Homo sapiens (Human), UniProt P98170)
Sequence (P98170 241-356): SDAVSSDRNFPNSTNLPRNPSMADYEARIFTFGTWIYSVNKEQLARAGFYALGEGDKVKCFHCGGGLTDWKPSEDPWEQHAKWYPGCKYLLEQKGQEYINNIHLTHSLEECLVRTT
Experiment: BIR binding assay (FRET competition), XIAP BIR3
What IC50 was measured for each of the following?

Consider the worked cases shown below.
Recorded IC50 (molecule C[C@@H]1CN(CC(=O)N2CC(C)(C)c3[nH]c(=O)c(Cc4ccc(F)cc4)cc32)[C@@H](CN2CCN(CCc3cn(CCCC(=O)N4CCN(C[C@H]5CN[C@H](C)CN5CC(=O)N5CC(C)(C)c6[nH]c(=O)c(Cc7ccc(F)cc7)cc65)[C@H](C)C4)nn3)C[C@H]2C)CN1 [Compound 157] ): 15.8 to 31.6 nM

Recorded IC50 (molecule C[C@@H]1CN(CC(=O)N2CC(C)(C)c3[nH]c(=O)c(Cc4ccc(F)cc4)cc32)[C@@H](CN2CCO[C@H](C(=O)NCCCN3CCN(CCCNC(=O)[C@@H]4CN(C[C@H]5CN[C@H](C)CN5CC(=O)N5CC(C)(C)c6[nH]c(=O)c(Cc7ccc(F)cc7)cc65)CCO4)CC3)C2)CN1 [Example 123] ): 7.94 to 15.8 nM

Recorded IC50 (molecule COc1cc(F)ccc1Cc1cnc2c(c1)N(C(=O)CN1C[C@@H](C)NC[C@@H]1CN1CCO[C@H](COc3cccc(OC[C@@H]4CN(C[C@H]5CN[C@H](C)CN5CC(=O)N5CC(C)(C)c6ncc(Cc7ccc(F)cc7OC)cc65)CCO4)c3)C1)CC2(C)C [Compound 151] ): 31.6 to 501 nM

More entries:
Recorded IC50 (molecule C[C@@H]1CN(CC(=O)N2CC(C)(C)c3c2cc(Cc2ccc(F)cc2)c(=O)n3C)[C@@H](CN2CCO[C@H](COCc3ccc(COC[C@@H]4CN(C[C@H]5CN[C@H](C)CN5CC(=O)N5CC(C)(C)c6c5cc(Cc5ccc(F)cc5)c(=O)n6C)CCO4)cc3)C2)CN1 [Example 117] ): 31.6 to 501 nM

---

System: Jurkat HIV-luciferase clones
Test: Jurkat latency reversal assay
Format: cell-based
Conditions: Homo sapiens, 48 h; Jurkat latency reversal assay potency; read-out: Jurkat pEC50 (converted)
Readout kind: EC50

Recorded EC50 (molecule C[C@@H]1CN(CC(=O)N2CC(C)(C)c3[nH]c(=O)c(Cc4ccc(F)cc4)cc32)[C@@H](CN2CCC(CCOc3cccc(OCCC4CCN(C[C@H]5CN[C@H](C)CN5CC(=O)N5CC(C)(C)c6[nH]c(=O)c(Cc7ccc(F)cc7)cc65)CC4)c3)CC2)CN1 [Example 108] ): 12.6 to 63.1 nM

Recorded EC50 (molecule CC(C)c1ccccc1Cc1cc2c([nH]c1=O)C(C)(C)CN2C(=O)CN1C[C@@H](C)NC[C@@H]1CN1CCO[C@H](C(=O)NCc2ccc(CNC(=O)[C@@H]3CN(C[C@H]4CN[C@H](C)CN4CC(=O)N4CC(C)(C)c5[nH]c(=O)c(Cc6ccccc6C(C)C)cc54)CCO3)cc2)C1 [Compound 173] ): 63.1 to 316 nM

Recorded EC50 (molecule C[C@@H]1CN(CC(=O)N2CC(C)(C)c3[nH]c(=O)c(Cc4ccc(F)cc4)cc32)[C@@H](CN2CCO[C@H](COCc3c(F)c(F)c(COC[C@@H]4CN(C[C@H]5CN[C@H](C)CN5CC(=O)N5CC(C)(C)c6[nH]c(=O)c(Cc7ccc(F)cc7)cc65)CCO4)c(F)c3F)C2)CN1 [Example 85] ): 0.49 to 12.6 nM

Recorded EC50 (molecule C[C@@H]1CN(CC(=O)N2CC(C)(C)c3[nH]c(=O)c(Cc4ccc(F)cc4)cc32)[C@@H](CN2CCO[C@H](COc3ccccc3Cc3ccccc3OC[C@@H]3CN(C[C@H]4CN[C@H](C)CN4CC(=O)N4CC(C)(C)c5[nH]c(=O)c(Cc6ccc(F)cc6)cc54)CCO3)C2)CN1 [Example 66] ): 0.49 to 12.6 nM

Recorded EC50 (molecule C[C@@H]1CN(CC(=O)N2CC(C)(C)c3[nH]c(=O)c(Cc4ccc(F)cc4)cc32)[C@@H](CN2CCO[C@H](C(=O)N(C)CCCN(C)C(=O)[C@@H]3CN(C[C@H]4CN[C@H](C)CN4CC(=O)N4CC(C)(C)c5[nH]c(=O)c(Cc6ccc(F)cc6)cc54)CCO3)C2)CN1 [Example 130] ): 12.6 to 63.1 nM

Recorded EC50 (molecule C[C@@H]1CN(CC(=O)N2CC(C)(C)c3[nH]c(=O)c(Cc4ccc(F)cc4)cc32)[C@@H](CN2CCO[C@H](COc3ccc(CCc4ccc(OC[C@@H]5CN(C[C@H]6CN[C@H](C)CN6CC(=O)N6CC(C)(C)c7[nH]c(=O)c(Cc8ccc(F)cc8)cc76)CCO5)cc4)cc3)C2)CN1 [Example 58] ): 12.6 to 63.1 nM

More entries:
Recorded EC50 (molecule C[C@@H]1CN(CC(=O)N2CC(C)(C)c3[nH]c(=O)c(Cc4ccc(F)cc4)cc32)[C@@H](CN2CCC(CCCC3CCN(C[C@H]4CN[C@H](C)CN4CC(=O)N4CC(C)(C)c5[nH]c(=O)c(Cc6ccc(F)cc6)cc54)CC3)CC2)CN1 [Example 94] ): 0.49 to 12.6 nM

---

Biological target: cIAP2-BIR3 (Homo sapiens (Human), UniProt Q13489)
Sequence (Q13489 238-349): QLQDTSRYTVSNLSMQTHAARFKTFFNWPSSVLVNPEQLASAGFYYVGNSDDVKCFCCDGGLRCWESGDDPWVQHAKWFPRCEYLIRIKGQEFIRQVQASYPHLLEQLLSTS
Assay: BIR binding assay (FRET competition), cIAP2 BIR3
Conditions: fold separation (FS) for cIAP2
Readout kind: cIAP2 BIR3 vs BIR2 separation window

Recorded cIAP2 BIR3 vs BIR2 separation window (compound C[C@@H]1CN(CC(=O)N2CC(C)(C)c3[nH]c(=O)c(Cc4ccc(F)cc4)cc32)[C@@H](CN2CCO[C@H](COc3ccccc3Oc3ccccc3OC[C@@H]3CN(C[C@H]4CN[C@H](C)CN4CC(=O)N4CC(C)(C)c5[nH]c(=O)c(Cc6ccc(F)cc6)cc54)CCO3)C2)CN1 [Example 68] ): +++ (10,000>FS>1,000)

Recorded cIAP2 BIR3 vs BIR2 separation window (compound C[C@@H]1CN(CC(=O)N2CC(C)(C)c3ncc(Cc4ccc(F)cc4)cc32)[C@@H](CN2CCO[C@H](COc3cccc(OC[C@@H]4CN(C[C@H]5CN[C@H](C)CN5CC(=O)N5CC(C)(C)c6ncc(Cc7ccc(F)cc7)cc65)CCO4)c3)C2)CN1 [Compound 145] ): +++ (10,000>FS>1,000)

Recorded cIAP2 BIR3 vs BIR2 separation window (compound C[C@@H]1CN(CC(=O)N2CC(C)(C)c3[nH]c(=O)c(Cc4ccc(F)cc4)cc32)[C@@H](CN2CCO[C@H](C(=O)N(C)CC3CCN(C(=O)[C@@H]4CN(C[C@H]5CN[C@H](C)CN5CC(=O)N5CC(C)(C)c6[nH]c(=O)c(Cc7ccc(F)cc7)cc65)CCO4)CC3)C2)CN1 [Example 132] ): +++ (10,000>FS>1,000)

Recorded cIAP2 BIR3 vs BIR2 separation window (compound C[C@@H]1CN(CC(=O)N2CC(C)(C)c3[nH]c(=O)c(Cc4ccc(F)cc4)cc32)[C@@H](CN2CCO[C@H](COc3ccc(C(=O)C(=O)c4ccc(OC[C@@H]5CN(C[C@H]6CN[C@H](C)CN6CC(=O)N6CC(C)(C)c7[nH]c(=O)c(Cc8ccc(F)cc8)cc76)CCO5)cc4)cc3)C2)CN1 [Example 59] ): +++ (10,000>FS>1,000)

Recorded cIAP2 BIR3 vs BIR2 separation window (compound C[C@@H]1CN(CC(=O)N2CC(C)(C)c3[nH]c(=O)c(Cc4ccc(F)cc4)cc32)[C@@H](CN2CCO[C@H](COCCOCCOC[C@@H]3CN(C[C@H]4CN[C@H](C)CN4CC(=O)N4CC(C)(C)c5[nH]c(=O)c(Cc6ccc(F)cc6)cc54)CCO3)C2)CN1 [Example 83] ): +++ (10,000>FS>1,000)

For every record below, what is its cIAP2 BIR3 vs BIR2 separation window?
1. COc1cc(F)ccc1Cc1cnc2c(c1)N(C(=O)CN1C[C@@H](C)NC[C@@H]1CN1CCO[C@H](COc3cccc(OC[C@@H]4CN(C[C@H]5CN[C@H](C)CN5CC(=O)N5CC(C)(C)c6ncc(Cc7ccc(F)cc7OC)cc65)CCO4)c3)C1)CC2(C)C [Compound 151]
2. C[C@@H]1CN(CC(=O)N2CC(C)(C)c3ncc(Nc4ccc(F)cc4)cc32)[C@@H](CN2CCO[C@H](COc3cccc(OC[C@@H]4CN(C[C@H]5CN[C@H](C)CN5CC(=O)N5CC(C)(C)c6ncc(Nc7ccc(F)cc7)cc65)CCO4)c3)C2)CN1 [Compound 143]
3. C[C@@H]1CN(CC(=O)N2CC(C)(C)c3[nH]c(=O)c(Cc4ccc(F)cc4)cc32)[C@@H](CN2CCC(CNC(=O)c3ccc(C(=O)NCC4CCN(C[C@H]5CN[C@H](C)CN5CC(=O)N5CC(C)(C)c6[nH]c(=O)c(Cc7ccc(F)cc7)cc65)CC4)cc3)CC2)CN1 [Example 101]

(A)
+++ (10,000>FS>1,000)
++++ (FS>10,000)
++++ (FS>10,000)

For every record below, what is its cIAP2 BIR3 vs BIR2 separation window?
1. C[C@@H]1CN(CC(=O)N2CC(C)(C)c3[nH]c(=O)c(Cc4ccc(F)cc4)cc32)[C@@H](CN2CCC[C@@H](NC(=O)Cc3ccc(CC(=O)N[C@@H]4CCCN(C[C@H]5CN[C@H](C)CN5CC(=O)N5CC(C)(C)c6[nH]c(=O)c(Cc7ccc(F)cc7)cc65)C4)cc3)C2)CN1 [Example 48]
2. C[C@@H]1CN(CC(=O)N2CC(C)(C)c3[nH]c(=O)c(Cc4c(F)c(F)c(F)c(F)c4F)cc32)[C@@H](CN2CCO[C@H](C(=O)NCc3ccc(CNC(=O)[C@@H]4CN(C[C@H]5CN[C@H](C)CN5CC(=O)N5CC(C)(C)c6[nH]c(=O)c(Cc7c(F)c(F)c(F)c(F)c7F)cc65)CCO4)cc3)C2)CN1 [Compound 176]
3. C[C@@H]1CN(CC(=O)N2CC(C)(C)c3[nH]c(=O)c(Cc4ccc(F)cc4)cc32)[C@@H](CN2CCO[C@H](C(=O)N[C@H]3CC[C@H](NC(=O)[C@@H]4CN(C[C@H]5CN[C@H](C)CN5CC(=O)N5CC(C)(C)c6[nH]c(=O)c(Cc7ccc(F)cc7)cc65)CCO4)CC3)C2)CN1 [Example 92]
4. C[C@@H]1CN(CC(=O)N2CC(C)(C)c3[nH]c(=O)c(Cc4cc(F)c(F)cc4F)cc32)[C@@H](CN2CCO[C@H](C(=O)NCc3ccc(CNC(=O)[C@@H]4CN(C[C@H]5CN[C@H](C)CN5CC(=O)N5CC(C)(C)c6[nH]c(=O)c(Cc7cc(F)c(F)cc7F)cc65)CCO4)cc3)C2)CN1 [Compound 175]

(A)
++++ (FS>10,000)
+++ (10,000>FS>1,000)
+++ (10,000>FS>1,000)
+++ (10,000>FS>1,000)

For every record below, what is its cIAP2 BIR3 vs BIR2 separation window?
1. C[C@@H]1CN(CC(=O)N2CC(C)(C)c3[nH]c(=O)c(Cc4ccc(F)cc4)cc32)[C@@H](CN2CCO[C@H](C(=O)N(C)CCCCN(C)C(=O)[C@@H]3CN(C[C@H]4CN[C@H](C)CN4CC(=O)N4CC(C)(C)c5[nH]c(=O)c(Cc6ccc(F)cc6)cc54)CCO3)C2)CN1 [Example 127]
2. C[C@@H]1CN(CC(=O)N2CC(C)(C)c3[nH]c(=O)c(Cc4ccc(F)cc4)cc32)[C@@H](CN2CCO[C@H](COc3ccc(F)c(OC[C@@H]4CN(C[C@H]5CN[C@H](C)CN5CC(=O)N5CC(C)(C)c6[nH]c(=O)c(Cc7ccc(F)cc7)cc65)CCO4)c3)C2)CN1 [Example 75]

(A)
+++ (10,000>FS>1,000)
+++ (10,000>FS>1,000)
